Values were extracted from patent US11566007B2.

tested_system: KRAS G12D (Homo sapiens (Human), UniProt P01116+P62937, G12D)
Sequence (P01116-2 other isoform, or with tags, fused parts or gaps G12D): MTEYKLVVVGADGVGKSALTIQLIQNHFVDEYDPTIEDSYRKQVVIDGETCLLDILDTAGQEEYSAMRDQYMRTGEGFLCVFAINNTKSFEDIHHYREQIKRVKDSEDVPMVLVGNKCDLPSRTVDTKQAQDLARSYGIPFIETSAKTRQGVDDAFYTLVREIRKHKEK
Sequence (P62937 whole entry): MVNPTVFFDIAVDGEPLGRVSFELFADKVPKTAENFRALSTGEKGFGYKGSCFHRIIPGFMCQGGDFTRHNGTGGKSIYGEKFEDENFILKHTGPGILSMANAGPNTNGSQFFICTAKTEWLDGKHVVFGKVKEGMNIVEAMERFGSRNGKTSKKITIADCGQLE
protocol_summary: Ras-Raf (BRAF RBD) disruption / FRET / MOA assay, KRAS G12D
Assay type: biochemical
condition_notes: Ras-Raf disruption/FRET/MOA assay; class symbols; read-out: KRAS G12D FRET data IC50
pIC50: −log10 of the molar value.
Assign pIC50 to each entry below.

pIC50 reported for this compound CCn1c(-c2cccnc2[C@H](C)OC)c2c3cc(ccc31)-c1cccc(c1)C[C@H](NC(=O)[C@H](C(C)C)N(C)C(=O)[C@H]1CCN(C(=O)C#CC(C)(C)N(C)C)C1)C(=O)N1CCC[C@H](N1)C(=O)OCC(C)(C)C2 (atropisomer, axis not shown) [Example A290] : < 5.00

The reported pIC50 of the compound `C=CC(=O)N1CC[C@H](C(=O)N(C)[C@H](C(=O)N[C@H]2Cc3cc(O)cc(c3)-c3ccc4c(c3)c(c(-c3ccccc3CN(C)C)n4CC)CC(C)(C)COC(=O)[C@@H]3CCCN(N3)C2=O)C(C)C)C1` was 5.00 to 6.00

----------
tested_system: NRAS WT (Homo sapiens (Human), UniProt P01111+P62937)
Sequence (P01111 whole entry): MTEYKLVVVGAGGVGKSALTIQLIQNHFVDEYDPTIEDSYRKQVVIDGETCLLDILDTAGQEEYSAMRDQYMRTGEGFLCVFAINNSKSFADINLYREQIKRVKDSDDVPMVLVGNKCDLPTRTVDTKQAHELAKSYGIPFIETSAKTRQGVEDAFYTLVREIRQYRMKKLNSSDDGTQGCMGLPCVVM
Sequence (P62937 whole entry): as the sequence (P62937 whole entry) above
protocol_summary: Ras-Raf (BRAF RBD) disruption / FRET / MOA assay, NRAS WT
Assay type: biochemical
condition_notes: read-out: IC50* NRAS WT FRET data
pIC50: −log10 of the molar value.
outcome_measure: pIC50

Value (pIC50, NRAS WT (Homo sapiens (Human), UniProt P01111+P62937)) for record C=CC(=O)N1CCOC2(C1)CN(C(=O)N(C)[C@H](C(=O)N[C@H]1Cc3cccc(c3)-c3ccc4c(c3)c(c(-c3cccnc3[C@H](C)OC)n4CC(F)(F)F)CC(C)(C)COC(=O)[C@@H]3CCCN(N3)C1=O)C(C)C)C2 (atropisomer, axis not shown) = 6.00 to 7.00

Item: CCn1c(-c2cccnc2[C@H](C)OC)c2c3cc(ccc31)-c1csc(n1)C[C@H](NC(=O)[C@H](C(C)C)N(C)C(=O)N1CCC3(CC1)CN(C(=O)/C=C/CN(C)C)C3)C(=O)N1CCC[C@H](N1)C(=O)OCC(C)(C)C2 (atropisomer, axis not shown) | System: NRAS WT (Homo sapiens (Human), UniProt P01111+P62937) | pIC50: 6.00 to 7.00

Observed pIC50 on NRAS WT (Homo sapiens (Human), UniProt P01111+P62937), entry `C=CC(=O)N1CC[C@H](C(=O)N(C)[C@H](C(=O)N[C@H]2Cc3cc(O)cc(c3)-c3ccc4c(c3)c(c(-c3ccc(N5CCN(C)CC5)nc3)n4CC)CC(C)(C)COC(=O)[C@@H]3CCCN(N3)C2=O)C(C)C)C1` , equals 5.00 to 6.00

Hey, NRAS WT (Homo sapiens (Human), UniProt P01111+P62937) data for C=CC(=O)N1CC[C@H](C(=O)N(C)[C@H](C(=O)N[C@H]2Cc3cccc(c3)-c3ccc4c(c3)c(c(-c3cccnc3[C@H](C)OC)n4CC)CC(C)(C)COC(=O)[C@@H]3CCCN(N3)C2=O)C(C)C)[C@H]1C (atropisomer, axis not shown) : pIC50 came out at 5.00 to 6.00

Entry C=CC(=O)N1CCO[C@H]2CCN(C(=O)N(C)[C@H](C(=O)N[C@H]3Cc4nc(cs4)-c4ccc5c(c4)c(c(-c4cccnc4[C@H](C)OC)n5CC)CC(C)(C)COC(=O)[C@@H]4CCCN(N4)C3=O)C(C)C)C[C@H]21 (atropisomer, axis not shown) ; assay system NRAS WT (Homo sapiens (Human), UniProt P01111+P62937); pIC50 recorded at 6.00 to 7.00

Lab note: compound CCn1c(-c2cccnc2[C@H](C)OC)c2c3cc(ccc31)-c1cccc(c1)C[C@H](NC(=O)[C@@H](COC1CN(C(=O)C#C[C@H]3COCCN3C)C1)C(C)C)C(=O)N1CCC[C@H](N1)C(=O)OCC(C)(C)C2 (atropisomer, axis not shown) tested on NRAS WT (Homo sapiens (Human), UniProt P01111+P62937); recorded pIC50 was < 5.00

Per the reported NRAS WT (Homo sapiens (Human), UniProt P01111+P62937) data, C=CC(=O)N1CC(OC[C@H](C(=O)N[C@H]2C[C@H]3CN(CCO3)c3ccc4c(c3)c(c(-c3cccnc3[C@H](C)OC)n4CC(F)(F)F)CC(C)(C)COC(=O)[C@@H]3CCCN(N3)C2=O)C(C)C)C1 (atropisomer, axis not shown) has pIC50 of 5.00 to 6.00

The compound CO[C@@H](C)c1ncccc1-c1c2c3cc(ccc3n1CC(F)(F)F)-c1cccc(c1)C[C@H](NC(=O)[C@H](C(C)C)N(C)C(=O)N1CCC3(CC1)CN(C(=O)/C=C/CN(C)C)C3)C(=O)N1CCC[C@H](N1)C(=O)OCC(C)(C)C2 (atropisomer, axis not shown) on NRAS WT (Homo sapiens (Human), UniProt P01111+P62937): pIC50 was 6.00 to 7.00

The reported NRAS WT (Homo sapiens (Human), UniProt P01111+P62937) pIC50 of CCn1c(-c2cccnc2[C@H](C)OC)c2c3cc(ccc31)N1CCC[C@@H](C[C@H](NC(=O)[C@H](C(C)C)N(C)C(=O)C3(F)CCN(C(=O)C#CC(C)(C)N(C)C)CC3)C(=O)N3CCC[C@H](N3)C(=O)OCC(C)(C)C2)C1 (atropisomer, axis not shown) [Example A616] is 5.00 to 6.00

// compound C=CC(=O)N1CC[C@@]2(C1)OCN([C@H](C(=O)N[C@H]1Cc3cccc(c3)-c3ccc4c(c3)c(c(-c3cccnc3[C@H](C)OC)n4CC)CC(C)(C)COC(=O)[C@@H]3CCCN(N3)C1=O)C(C)C)C2=O (atropisomer, axis not shown) , assay NRAS WT (Homo sapiens (Human), UniProt P01111+P62937), pIC50 value: 6.00 to 7.00

# CCn1c(-c2cccnc2[C@H](C)OC)c2c3cc(ccc31)-c1csc(n1)C[C@H](NC(=O)[C@H](C(C)C)N(C)C(=O)N1CCC13CN(C(=O)C#CC(C)(C)N(C)C)C3)C(=O)N1CCC[C@H](N1)C(=O)OCC(C)(C)C2 (atropisomer, axis not shown) with NRAS WT (Homo sapiens (Human), UniProt P01111+P62937): pIC50 is 6.00 to 7.00

Item: CC#CC(=O)N1CC2(CCN2C(=O)N(C)[C@H](C(=O)N[C@H]2Cc3nc(cs3)-c3ccc4c(c3)c(c(-c3cccnc3[C@H](C)OC)n4CC)CC(C)(C)COC(=O)[C@@H]3CCCN(N3)C2=O)C(C)C)C1 (atropisomer, axis not shown) | System: NRAS WT (Homo sapiens (Human), UniProt P01111+P62937) | pIC50: 6.00 to 7.00

Fill in: NRAS WT (Homo sapiens (Human), UniProt P01111+P62937) pIC50 for `C=CC(=O)N1CC[C@H](C(=O)N(C)[C@H](C(=O)N[C@H]2Cc3cc(O)cc(c3)-c3cc4c(c(-c5ccccc5CCOC)n(CC)c4cn3)CC(C)(C)COC(=O)[C@@H]3CCCN(N3)C2=O)C(C)C)C1` = < 5.00

Let me check: C=CC(=O)NCCN1CCN(C(=O)N(C)[C@H](C(=O)N[C@H]2Cc3nc(cs3)-c3ccc4c(c3)c(c(-c3cccnc3[C@H](C)OC)n4CC)CC(C)(C)COC(=O)[C@@H]3CCCN(N3)C2=O)C(C)C)CC1 (atropisomer, axis not shown) , system NRAS WT (Homo sapiens (Human), UniProt P01111+P62937), measured pIC50 is 6.00 to 7.00

Bench note, NRAS WT (Homo sapiens (Human), UniProt P01111+P62937): entry CCn1c(-c2cccnc2[C@H](C)OC)c2c3cc(ccc31)-c1cccc(c1)C[C@H](NC(=O)[C@@H](COC1CN(C(=O)C#CC(C)(C)N3CCC3)C1)C(C)C)C(=O)N1CCC[C@H](N1)C(=O)OCC(C)(C)C2 (atropisomer, axis not shown) , its pIC50 = < 5.00

----------
What pIC50 was measured for each of the following?
tested_system: KRAS G12D (Homo sapiens (Human), UniProt P01116+P62937, G12D)
protocol_summary: Ras-Raf (BRAF RBD) disruption / FRET / MOA assay, KRAS G12D
Type: biochemical
condition_notes: Ras-Raf disruption/FRET/MOA assay; class symbols; read-out: KRAS G12D FRET data IC50
pIC50: −log10 of the molar value.

The compound listed as C=CC(=O)N1CC[C@]2(CCN([C@H](C(=O)N[C@H]3Cc4cccc(c4)-c4ccc5c(c4)c(c(-c4cccnc4[C@H](C)OC)n5CC)CC(C)(C)COC(=O)[C@@H]4CCCN(N4)C3=O)C(C)C)C2=O)C1 (atropisomer, axis not shown) [Example A470] shows pIC50 equal to 5.00 to 6.00

// pIC50 value for C=CC(=O)N1CC(OC[C@H](C(=O)N[C@H]2Cc3cc(F)cc(c3)-c3ccc4c(c3)c(c(-c3cccnc3[C@H](C)OC)n4CC(F)(F)F)CC(C)(C)COC(=O)[C@@H]3CCCN(N3)C2=O)C(C)C)C1 (atropisomer, axis not shown) [Example A725] : < 5.00

Note to self: pIC50 recorded for CCn1c(-c2cccnc2[C@H](C)OC)c2c3cc(ccc31)-c1csc(n1)C[C@H](NC(=O)[C@@H](COC1CN(C(=O)C#CC(C)(C)N(C)C)C1)OC)C(=O)N1CCC[C@H](N1)C(=O)OCC(C)(C)C2 (atropisomer, axis not shown) [Example A660] was 5.00 to 6.00

Looking up CCn1c(-c2cccnc2[C@H](C)OC)c2c3cc(ccc31)-c1cccc(c1)C[C@H](NC(=O)[C@H](C(C)C)N(C)C(=O)[C@H]1CCN(C(=O)/C=C/CF)C1)C(=O)N1CCC[C@H](N1)C(=O)OCC(C)(C)C2 [Example A449] , I see its pIC50 listed as < 5.00

Sample C=CC(=O)NC1CN(C(=O)N(C)[C@H](C(=O)N[C@H]2Cc3nc(cs3)-c3ccc4c(c3)c(c(-c3cccnc3[C@H](C)OC)n4CC)CC(C)(C)COC(=O)[C@@H]3CCCN(N3)C2=O)C(C)C)C1 (atropisomer, axis not shown) [Example A490] ; pIC50 observed: 5.00 to 6.00

Field pIC50 (entry C=CC(=O)N1C[C@@H](C(=O)N(C)[C@H](C(=O)N[C@H]2Cc3cc(O)cc(c3)-c3ccc4c(c3)c(c(-c3cccnc3COC)n4CC)CC(C)(C)COC(=O)[C@@H]3CCCN(N3)C2=O)C(C)C)C[C@H]1C [Example A158] ) reads < 5.00

CCn1c(-c2cccnc2[C@H](C)OC)c2c3cc(ccc31)-c1cc(CF)cc(c1)C[C@H](NC(=O)[C@H](C(C)C)N(C)C(=O)[C@H]1CCN(C(=O)C#CC(C)(C)N(C)C)C1)C(=O)N1CCC[C@H](N1)C(=O)OCC(C)(C)C2 (atropisomer, axis not shown) [Example A658] has a reported pIC50 of 5.00 to 6.00

Reported pIC50 of CCn1c(-c2cccnc2)c2c3cc(ccc31)-c1csc(n1)C[C@H](NC(=O)[C@H](C(C)C)N(C)C(=O)[C@H]1CCN(C(=O)C#CCN3CCOCC3)C1)C(=O)N1CCC[C@H](N1)C(=O)OCC(C)(C)C2 [Example A190] : < 5.00
